test: Human HepG2 cell viability assay in 384 well format; format: toxicity, cell-based; set-up: dose 125 nL, time 70.5 hour; concentration not given beside the values; settings: HepG2 cells, read-out: Inhibition
measured-parameter: cytotoxicity at 70.5 h (%)
Answers are plain numbers, in %.

Look over these answered cases.
| compound | cytotoxicity at 70.5 h / % |
| --- | --- |
| CCCOC1CCCN(c2ccnc(C(=O)NCc3ccco3)c2)C1 (stereo not given) | -8.53 |
| Cc1nc(CN2CCOC(c3nc(C(C)C)n[nH]3)C2)oc1C (stereo not given) | 6.2 |
| Cc1ccc(CN2CC[C@H]3[C@H]2CCN3S(=O)(=O)C2CC2)cc1 | -6.33 |
| CCC[C@@H]1CN(Cc2ccc(C(F)(F)F)nc2)C[C@H]1C(=O)O | -8.04 |
| Cc1cnc(CN(C)C2CCN(Cc3nc4ccccc4s3)C2)o1 (stereo not given) | 51.7 |

Batch: cytotoxicity at 70.5 h for all items listed.
1. Cc1ccc(C(=O)N2C[C@@H]3CCCO[C@@H]3[C@H](N3CCOCC3)C2)cn1
2. CSc1nc2ccsc2c(=O)n1CC(=O)NC1CCCCC1
3. Cc1nccc(-c2cccc(NCC(=O)N3CCOC(C)C3)c2)n1 (stereo not given)
4. CCn1cc(CN2CCCN(C(=O)C3=NN(C)C(=O)CC3)CC2)cn1
5. Cc1ccn(CCC(=O)NCc2ccco2)n1
6. CN1CCCC(c2cncc(C(=O)NCc3ccccc3Cl)n2)C1 (stereo not given)
7. CCC(CO)N(Cc1ccccn1)C(=O)c1ccc(F)c(F)c1 (stereo not given)
8. Cc1ccc(CNC(=O)CCC(=O)NCCC(C)C)o1

[reply]
2.11
-6.83
-3.45
17.3
0.885
-7.68
-6.83
18.9

====

assay: Human HepG2 cell viability assay in 384 well format; type: toxicity, cell-based; design: dose 125 nL, time 70.5 hour; concentration not given beside the values; settings: HepG2 cells, read-out: Inhibition
measured-parameter: cytotoxicity at 70.5 h (%)
Numbers only, in %.

# annotated cases, reported cytotoxicity at 70.5 h shown
| molecule | cytotoxicity at 70.5 h / % |
| --- | --- |
| CCn1cnnc1CNC(=O)C1CCCN(Cc2cccc(F)c2)C1 (stereo not given) | -14.4 |
| CCOc1ccccc1CSc1nnc(CC2CCS(=O)(=O)C2)n1C (stereo not given) | -11.4 |
| Cc1nc(CNC2CCc3ncnn3C2)oc1C (stereo not given) | -5.86 |
| COCCN1CCCC(CN(C)c2nc3c(s2)c(C)nn3C)C1 (stereo not given) | -4.58 |

Proceed to the following item.
[ask] Given the molecule O=C(Cc1ccsc1)N1CCCCC1c1ccn2ccnc2n1 (stereo not given) , what is its reported cytotoxicity at 70.5 h?
[reply] 8.15

====

Provide the reported cytotoxicity at 70.5 h of each item.
test: Human HepG2 cell viability assay in 384 well format; assay type: toxicity, cell-based; design: dose 125 nL, time 70.5 hour; concentration not given beside the values; details: HepG2 cells, read-out: Inhibition
One number for each entry, in %.

| compound | unit-abbrev | test-result |
| --- | --- | --- |
| CC1c2ncc(Cn3cncn3)n2CCN1C(=O)[C@H]1CCCO1 (stereo not given in full) | % | -8.44 |

Quick batch: cytotoxicity at 70.5 h for everything below.
1. COC(=O)COc1cccc(NS(=O)(=O)c2cc(C(=O)O)cs2)c1
2. Cc1ccccc1CSc1nc(N)cc(N2CC[C@@H](O)C2)n1
3. CCn1nc(C)c2ccn(CC(=O)NCCCOC)c(=O)c21
4. Cc1cc(CN2C[C@@H]3COC[C@]3(CNC(=O)c3ccsc3)C2)no1

[reply]
[10.9, -6.37, -6.99, -8.24]

Each compound below has a recorded value; state its cytotoxicity at 70.5 h.
1. Cc1ccc(CN2C[C@H]3CN(C(=O)c4ccno4)CCN3C2=O)cc1
2. Cc1ccc(C(C(=O)NCc2n[nH]c(N)n2)N(C)C)cc1 (stereo not given)
3. COc1cnc(CSc2nnc(C)s2)cc1OCC(=O)NC(C)(C)C
4. CCC(NC(=O)c1cc(CC(C)C)nn1C)c1cc(C)ccn1 (stereo not given)
5. Cc1nn(CC(=O)N2CCN(c3ccc(F)cc3)CC2)c(C)c1Cl
6. CCN1CCC2(COCc3c(C)nc(N4CCOCC4)nc32)C1 (stereo not given)
7. CC(=O)Nc1nc(CN2CCOC(Cn3cccn3)C2)cs1 (stereo not given)

[reply]
1: 6.23; 2: -5.83; 3: -7.68; 4: -19.2; 5: 26.3; 6: 11.1; 7: -5.08

Dear colleague, could you send me cytotoxicity at 70.5 h for each of the items below? Thanks.
1. Cc1cc(NC(=O)c2ccc(CN3CC[C@H](O)C3)cc2)ccc1F
2. CC(=O)N1CCCCC1c1nnc2n1CCNC2 (stereo not given)

[reply]
-13.5
17.5

====

assay: Human HepG2 cell viability assay in 384 well format; format: toxicity, cell-based; design: dose 125 nL, time 70.5 hour; concentration not given beside the values; details: HepG2 cells, read-out: Inhibition
measured-parameter: cytotoxicity at 70.5 h (%)
Answers are plain numbers, in %.

| compound | cytotoxicity at 70.5 h, % |
| --- | --- |
| CCCN1C[C@H]2CC[C@@H]1CN(C(=O)Cn1c(C)cc(C)nc1=O)C2 | -14.9 |

For each of the compounds below, state cytotoxicity at 70.5 h.
1. O=C1NCCCN1Cc1nc(-c2ccc(N3CCCCC3)cc2)no1
2. Cc1nc(CSCCC(=O)NCc2ccc(-n3cncn3)nc2)cs1
3. Cc1cc(F)c2c(c1)CCCN2S(=O)(=O)c1ncn(C)c1Cl
4. Cc1cc(CNC(=O)CCc2c(C)nc3cc(O)nn3c2C)no1
5. CCCc1nnc(NCCc2noc(C3CCC3)n2)o1

[reply]
-1.73
24.6
-0.387
-6.68
-10.7

I would be grateful if you could provide cytotoxicity at 70.5 h for each of the following entries.
1. CCCN1CCCN(CCCOc2cccc(C#N)c2)CC1
2. Cc1cnc2c(c1NCc1ccccn1)c(=O)n(C)c(=O)n2C
3. CCc1cnc(CN(C)C2CCN(CCn3cc(C#N)cn3)C2)o1 (configuration not stated)
4. OC(COCc1ccccc1F)CN1CCc2c(ncn2C2CC2)C1 (configuration not stated)
5. Cc1nn(C)c(C)c1S(=O)(=O)N1C[C@@H]2C[C@@H](C)O[C@@H]2C1

[reply]
1. -1.9
2. -11.2
3. 16.4
4. -2.37
5. -9.76

Give cytotoxicity at 70.5 h for all compounds that follow.
1. CCS(=O)(=O)N1CCN(CCn2cccn2)c2nc(C)ccc2C1
2. Cc1csc(N2CCN(C(=O)CCNc3ncccn3)CC2)n1
3. COc1ccc2[nH]cc(C(=O)N3CC[C@H](CO)[C@@H](O)C3)c(=O)c2c1
4. CC(C)(C)NS(=O)(=O)c1ccccc1CNCc1cccc(O)c1
5. Cc1ccc(N2CC[C@H](OCC3CC3)[C@@H]2Cc2cccnc2)nn1
6. O=c1c(S(=O)(=O)N2CCCCC2)cccn1Cc1cccnc1
7. CN(C)C(=O)N1CCc2ccc(=O)[nH]c2CC1
8. CC(=O)NCCNC(=O)NCc1ccc(-n2ccc(C(F)(F)F)n2)cc1

[reply]
1. -2.39
2. -11.3
3. -6.72
4. 3.89
5. 1.2
6. -9.28
7. -3.89
8. -6.79

Please go through the list and note cytotoxicity at 70.5 h for each compound.
1. O=C(Nc1ccccn1)NC(CCCO)c1ccccc1 (configuration not stated)
2. CC1C(=O)NCCN1CCOc1ccc(C#N)cc1 (configuration not stated)
3. c1ccc(Cn2ccnc2CN2CCOC(Cn3cccn3)C2)cc1 (configuration not stated)
4. CCc1cc(N[C@@H](CC(C)C)C(N)=O)n2nc(C)c(C)c2n1
5. COCC1(C(=O)N2CCC(c3nccn3CC3CC3)CC2)CCC1

[reply]
1. -5.11
2. -21.1
3. 2.05
4. -8.65
5. 2.4

====

Exercise: state measured cytotoxicity at 70.5 h for each of the compounds provided.
assay: Human HepG2 cell viability assay in 384 well format; assay type: toxicity, cell-based; parameters: dose 125 nL, time 70.5 hour; concentration not given beside the values; conditions: HepG2 cells, read-out: Inhibition
Numbers only, in %.

Batch of 5 compounds: report cytotoxicity at 70.5 h for each.
1. CNc1nc(C(=O)N2CCCn3nc(C(=O)N4CCCC4)cc3C2)cs1
2. N#Cc1c(SCCN2CCOCC2)sc2c(O)cc(O)nc12
3. CCc1nccn1C1CCCN(C(=O)c2cn3cccnc3n2)C1 (stereo not given)
4. O=C(CCc1cn[nH]c1)N1C[C@@H](CN2CCCCCC2)[C@@H](CO)C1
5. COc1cc(OC)c(C2CC(=O)Oc3cc(C)[nH]c(=O)c32)cc1OC (stereo not given)

[reply]
-11.2
17.3
-11.4
-8.48
-19.4

Batch lookup, cytotoxicity at 70.5 h per entry.
1. N#CC(NC(=O)CC1CCSCC1)c1cnn(-c2ccccc2)c1 (stereo not given)
2. CC(=O)N1CC[C@@]2(O)CCCC[C@H]2[C@@H]1c1ccc2c(c1)OCO2
3. CCc1cnc(C)nc1NCCN1CCCC(C(N)=O)C1 (stereo not given)
4. COCc1nc2cc(NCc3ccc(CO)o3)ccc2o1
5. CCn1ncc2c1CCCC2NCc1ccc(C)s1 (stereo not given)
6. Cn1cc(CNC2CCOCC2)c(-c2cc3ccccc3o2)n1
7. Cc1cccc(NC(=O)[C@@H]2CCCN2Cc2nnc(C(C)C)n2C)n1
8. CC1=C(C(=O)N(C)Cc2n[nH]c3c2CCCCC3)C(C)NC(=O)N1 (stereo not given)

[reply]
1. -3.51
2. -1.93
3. 0.301
4. 14.6
5. -4.74
6. -5.58
7. -1.83
8. 31

Kindly give each listed record's cytotoxicity at 70.5 h.
1. O=C(c1ccco1)N1CCC(n2nc(-c3cccs3)ccc2=O)CC1
2. CCS(=O)(=O)N1CCc2ccc(NC(=O)NCCc3ccccc3)cc21

[reply]
1: -5.47; 2: -6.1

Each compound below has a recorded value; state its cytotoxicity at 70.5 h.
1. CCc1nc(C2CCCN(C(=O)c3cnn(CC)c3)C2)no1 (stereo not given)
2. Cc1cc(S(=O)(=O)NCC2CNCCOC2)c(C)cc1Cl (stereo not given)
3. CCCN1CC(NC(=O)Nc2nc(C)n(C(C)C)n2)CC1=O (stereo not given)
4. Cc1ccc(OCCCSC2=NCCN2)cc1

[reply]
2.05
1.99
-3.82
-3.22

[ask] Could you tell me which cytotoxicity at 70.5 h is on file for CC(Cn1cccn1)NC(=O)N(C)Cc1ccc(C(N)=O)cc1 (stereo not given) ?
[reply] 37.9
